Each entry below carries its reported IC50 of inhibition of IL-2 secretion from T-Hyb 1 cells.
- TEST TARGET: chimeric 0401-IE class II molecule on cells of transgenic mice (human/murine chimera)
- TEST PROTOCOL: cell-based or functional assay

Would you mind telling me what IC50 of inhibition of IL-2 secretion from T-Hyb 1 cells value was observed for MS-GPC-8-6-27 Fab (Fab, V domains shown, Fab: VH-CH1 with FLAG tag and STREP tag II, VL-CL; VH residue 1 is Q in Fab) VH: QVQLKESGPALVKPTQTLTLTCTFSGFSLSTSGVGVGWIRQPPGKALEWLALIDWDDDKYYSTSLKTRLTISKDTSKNQVVLTMTNMDPVDTATYYCARSPRYRGAFDYWGQGTLVTVSS VL: DIVLTQPPSVSGAPGQRVTISCSGSDSNIGANYVTWYQQLPGTAPKLLIYDNNQRPSGVPDRFSGSKSGTSASLAITGLQSEDEADYYCQSYDYDHYVFGGGTKLTVLG ?
3 nM (half the concentration of the Fab)

Please give the measured IC50 of inhibition of IL-2 secretion from T-Hyb 1 cells for this binder: MS-GPC-8-6 IgG (antibody, V domains shown) VH: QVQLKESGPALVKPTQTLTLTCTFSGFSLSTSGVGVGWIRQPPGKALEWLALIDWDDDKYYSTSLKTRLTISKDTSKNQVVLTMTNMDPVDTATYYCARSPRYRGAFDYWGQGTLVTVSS VL: DIVLTQPPSVSGAPGQRVTISCSGSSSNIGSNYVSWYQQLPGTAPKLLIYDNNQRPSGVPDRFSGSKSGTSASLAITGLQSEDEADYYCQSYDYDHYVFGGGTKLTVLG
6.7 nM
